System: Plasmodium berghei
experimentNotes: Screen against P. berghei liver stage (PbLuc), transformed with Luciferase, at 10uM
Format: functional, HepG2
measurementConditions: tested at 10 uM
In all, about 69,000 compounds went through this assay and about 8,600 (12%) showed an effect of 50% or more. The full list was thinned out, with strong results kept by preference.
Exercise: state measured INHIBITION for each of the molecules provided.
Give bare numbers, in %.

Kindly give each listed record's INHIBITION.
1. CCOc1ccccc1-c1cc(N)[nH]n1
2. O=C(NC[C@@H]1CCCO1)c1ccc(S(=O)(=O)N[C@@H]2CCNC2)cc1

1. 16.2
2. 2.55

---

Tested on: Plasmodium berghei
experimentNotes: Screen against P. berghei liver stage (PbLuc), transformed with Luciferase, at 10uM
Format: functional, HepG2
measurementConditions: tested at 10 uM
About 8,600 (12%) of roughly 69,000 compounds showed an effect of 50% or more. What follows is part of a selection rich in strong results, with near analogues and random picks from the rest.
Field: INHIBITION. Provide a value for each of the compounds that follow.
Phrase the answer as number then unit, nothing more needed.

[
  {
    "compound": "COc1ccc(CCNC(=O)NC2CCCC2)cc1OC",
    "reportedValue": "-24.9%"
  },
  {
    "compound": "CCc1nc(C)c(C(=O)NCCNC(=O)c2cccs2)s1",
    "reportedValue": "58%"
  },
  {
    "compound": "Cc1nccn1CCN(C)C(=O)c1cn(CC2CCCCC2)nn1",
    "reportedValue": "41.8%"
  },
  {
    "compound": "CCn1cnnc1CNC(=O)NC(C)C(C)C (stereo not drawn)",
    "reportedValue": "10%"
  },
  {
    "compound": "NCCCC(=O)NCC1(O)CCN(c2ccnc3cccnc23)C1 (stereo not drawn)",
    "reportedValue": "8.3035%"
  }
]

Would you be so kind as to report INHIBITION for each listed record?
1. Cc1cccc(N2CC[C@@H]3[C@@H](CO[C@H]3CNC(=O)c3ccco3)C2)n1
2. CN(Cc1ccco1)C[C@H]1OC[C@@H]2CCN(Cc3ccccn3)C[C@@H]21

1: -44.2%; 2: -14.7%

Record INHIBITION for all entries; do not skip any.
1. CS(=O)(=O)c1cnc(C2CCCC2)nc1C1CCCNC1 (stereo not drawn)
2. Cc1nnsc1CN(C)Cc1ccc(C(=O)Nc2sccc2C#N)cc1
3. CCS(=O)(=O)N1CCc2c(COCc3ccncc3)cncc2C1

1: 16.5%; 2: 55.4%; 3: 66.6%

Could you tell me INHIBITION for each of these compounds? They are listed below.
1. CC(NC(=O)NCc1ccc(Cl)s1)c1ccccn1 (stereo not drawn)
2. Cc1cccc(N2CC[C@H]3CO[C@H](CN(C)Cc4ccco4)[C@H]3C2)n1
3. O=C1NCC(C(=O)Nc2ncc(Cc3ccccc3F)s2)N1 (stereo not drawn)

["17.7%", "46.4%", "-17.4%"]

Provide INHIBITION values for the following items, in order.
1. C=C(C)CN1CCC(NC(=O)Nc2cc(C(N)=O)ccc2OC)CC1
2. CCc1ncncc1C(=O)NCCNc1ncnc2sccc12
3. O=S(=O)(C1CC1)N1CCc2c(CN3CCOCC3)cncc2C1
4. CCn1cnnc1CNC(=O)NC(C)c1cccs1 (stereo not drawn)
5. C=C(C)CN1CCC(NC(=O)NCCc2cccc(C(N)=O)c2)CC1
6. Cc1ncc(C(=O)NCCNc2ccncc2)s1
7. CN(C)Cc1cc(C2CCCCN2S(=O)(=O)c2cccc(Cl)c2)nn1C (stereo not drawn)

1. 32.5%
2. 41.3%
3. 12.6%
4. 31%
5. 57.3%
6. -21.3%
7. 37.8%

Field: INHIBITION. Fill in for each record below.
1. C=C(C)COc1ccccc1CN1CCC(NC(C)=O)CC1
2. CCc1nc(CN2CCCC(NCc3nnc(C4CC4)n3C)C2)no1 (stereo not drawn)
3. CCS(=O)(=O)N1CCc2c(CN3CCOCC3)cncc2C1

19.4%
1.75%
92.1%
